- target_or_system: UniProt O75116
- test: ROCK2 kinase inhibition assay (LABCHIP 3000 Reader, FITC peptide substrate)
Each entry below carries its recorded IC50.

compound: [H][C@]1(Oc2ncccc2C(N)=O)C[C@@]2(C[C@H](NC(=O)c3cc(OCCC(F)(F)F)cc(-c4cnn(C)c4)c3)C2)C1 (stereo partly drawn)
IC50: 50 to 250 nM
//
compound: CC(C)(O)COc1ccc2c(C(=O)N[C@H]3CC4(C3)C[C@H](Oc3ncccc3C(N)=O)C4)nn(C(F)F)c2c1 (stereo partly drawn)
IC50: < 5 nM
//
compound: [2H]C([2H])([2H])n1cc(-c2ccc3c(C(=O)N[C@H]4CC5(C4)C[C@H](Oc4ncccc4C(N)=O)C5)nnn3c2)cn1 (stereo partly drawn)
IC50: < 5 nM
//
compound: COc1cccc(C(N)=O)c1OC1CC2(CC(NC(=O)c3cnn4cc(OCC(C)(C)O)ccc34)C2)C1 (stereo not drawn)
IC50: 250 to 2500 nM
//
compound: CC(C)NS(=O)(=O)c1ccccc1C(=O)N[C@H]1CC2(C1)C[C@H](Oc1ncccc1C(N)=O)C2 (stereo partly drawn)
IC50: 250 to 2500 nM
//
compound: CC(C)(O)COc1ccc2c(C(=O)NC3CC4(C3)CC(Oc3cc(-c5cccc(COC(=O)NCCC(=O)OC(C)(C)C)c5)ccc3C(N)=O)C4)cnn2c1 (stereo not drawn)
IC50: 50 to 250 nM
//
compound: Cc1c(-c2cc(C#N)cc(C(=O)N[C@H]3CC4(C3)C[C@H](Oc3ncccc3C(N)=O)C4)c2)cnn1C (stereo partly drawn)
IC50: < 5 nM
//
compound: [H][C@]1(Oc2ncccc2C(N)=O)C[C@@]2(C[C@H](NC(=O)c3cnn4c(CCC(F)(F)F)c(OCC(C)(C)O)ccc34)C2)C1 (stereo partly drawn)
IC50: < 5 nM
//
compound: COCc1cccc(-c2ccc(C(N)=O)c(OC3CC4(CC(NC(=O)c5cnn6cc(OCC(C)(C)O)ccc56)C4)C3)c2)c1 (stereo not drawn)
IC50: 5 to 50 nM
//
compound: CC(C)(O)COc1ccc2c(C(=O)NC3CC4(C3)CC(Oc3cc(C5CC5)ccc3C(N)=O)C4)cnn2c1C1CC1 (stereo not drawn)
IC50: < 5 nM
//
compound: Cn1nc(C(=O)NC2CC3(C2)CC(Oc2ccccc2C(N)=O)C3)c2ccccc21 (stereo not drawn)
IC50: 50 to 250 nM
//
compound: NC(=O)c1cccnc1O[C@H]1CC2(C[C@H](NC(=O)c3ccc4[nH]c(=O)c(=O)[nH]c4c3)C2)C1 (stereo partly drawn)
IC50: 250 to 2500 nM
//
compound: Cn1nc(C(=O)N[C@H]2CC3(C2)C[C@H](Oc2ncccc2C(N)=O)C3)cc1OCC1CC1 (stereo partly drawn)
IC50: 50 to 250 nM
//
compound: CC(C)(O)COc1ccc2c(C(=O)NC3CC4(C3)CC(Oc3ccc(F)cc3C(N)=O)C4)cnn2c1 (stereo not drawn)
IC50: 50 to 250 nM
//
compound: COC(=O)N1CC(Oc2ccc3c(C(=O)N[C@H]4CC5(C4)C[C@H](Oc4ccccc4C(N)=O)C5)cnn3c2)C1 (stereo partly drawn)
IC50: 5 to 50 nM
//
compound: NC(=O)c1ccccc1OC1CC2(CC(NC(=O)OCc3ccccc3)C2)C1 (stereo not drawn)
IC50: 250 to 2500 nM
//
compound: [H][C@]1(Oc2ncccc2C(N)=O)C[C@@]2(C[C@H](NC(=O)c3cc(-c4cnn(C(F)F)c4)cc(S(C)(=O)=O)c3)C2)C1 (stereo partly drawn)
IC50: 5 to 50 nM
//
compound: [H][C@]1(Oc2ccccc2C(N)=O)C[C@@]2(C[C@H](NC(=O)c3cnn4cc(OCC(C)(C)O)ccc34)C2)C1 (stereo partly drawn)
IC50: < 5 nM
//
compound: CN1CCN(c2ccc(C(N)=O)c(OC3CC4(CC(NC(=O)c5cnn6cc(OCC(C)(C)O)ccc56)C4)C3)c2)CC1 (stereo not drawn)
IC50: 5 to 50 nM
//
compound: CC(C)(O)COc1ccc2c(C(=O)NC3CC4(C3)CC(Oc3cc(-c5ccncc5)ccc3C(N)=O)C4)cnn2c1 (stereo not drawn)
IC50: 5 to 50 nM
//
compound: [H][C@]1(Oc2ncccc2C(N)=O)C[C@@]2(C[C@H](NC(=O)c3nnn4cc(Br)ccc34)C2)C1 (stereo partly drawn)
IC50: 5 to 50 nM
//
compound: CC(C)(O)COc1ccc2c(C(=O)N[C@H]3CC4(C3)C[C@H](Oc3ccccc3C(N)=O)C4)cnn2c1CCC(F)(F)F (stereo partly drawn)
IC50: < 5 nM
//
compound: CC(C)(O)COc1ccc2c(C(=O)NC3CC4(C3)CC(Oc3cc(CCCN)ccc3C(N)=O)C4)cnn2c1 (stereo not drawn)
IC50: < 5 nM
//
compound: CC(C)(C)c1cc(C(=O)N[C@H]2CC3(C2)C[C@H](Oc2ncccc2C(N)=O)C3)n(CCC(F)(F)F)n1 (stereo partly drawn)
IC50: 250 to 2500 nM
//
compound: NC(=O)c1cccnc1O[C@H]1CC2(C[C@H](NC(=O)c3cnn4c(CCC(F)(F)F)c(OCCC(F)(F)F)ccc34)C2)C1 (stereo partly drawn)
IC50: 5 to 50 nM
//
compound: CC(C)(O)COc1ccc2c(C(=O)NC3CC4(C3)CC(Oc3cc(-c5cccc(CO)c5)ccc3C(N)=O)C4)cnn2c1 (stereo not drawn)
IC50: < 5 nM
//
compound: Cn1nc(C(C)(C)C)cc1C(=O)N[C@H]1CC2(C1)C[C@H](Oc1ncccc1C(N)=O)C2 (stereo partly drawn)
IC50: 5 to 50 nM

----------
- target_or_system: ROCK2 (Homo sapiens, UniProt O75116)
- Sequence (O75116 whole entry, species assumed): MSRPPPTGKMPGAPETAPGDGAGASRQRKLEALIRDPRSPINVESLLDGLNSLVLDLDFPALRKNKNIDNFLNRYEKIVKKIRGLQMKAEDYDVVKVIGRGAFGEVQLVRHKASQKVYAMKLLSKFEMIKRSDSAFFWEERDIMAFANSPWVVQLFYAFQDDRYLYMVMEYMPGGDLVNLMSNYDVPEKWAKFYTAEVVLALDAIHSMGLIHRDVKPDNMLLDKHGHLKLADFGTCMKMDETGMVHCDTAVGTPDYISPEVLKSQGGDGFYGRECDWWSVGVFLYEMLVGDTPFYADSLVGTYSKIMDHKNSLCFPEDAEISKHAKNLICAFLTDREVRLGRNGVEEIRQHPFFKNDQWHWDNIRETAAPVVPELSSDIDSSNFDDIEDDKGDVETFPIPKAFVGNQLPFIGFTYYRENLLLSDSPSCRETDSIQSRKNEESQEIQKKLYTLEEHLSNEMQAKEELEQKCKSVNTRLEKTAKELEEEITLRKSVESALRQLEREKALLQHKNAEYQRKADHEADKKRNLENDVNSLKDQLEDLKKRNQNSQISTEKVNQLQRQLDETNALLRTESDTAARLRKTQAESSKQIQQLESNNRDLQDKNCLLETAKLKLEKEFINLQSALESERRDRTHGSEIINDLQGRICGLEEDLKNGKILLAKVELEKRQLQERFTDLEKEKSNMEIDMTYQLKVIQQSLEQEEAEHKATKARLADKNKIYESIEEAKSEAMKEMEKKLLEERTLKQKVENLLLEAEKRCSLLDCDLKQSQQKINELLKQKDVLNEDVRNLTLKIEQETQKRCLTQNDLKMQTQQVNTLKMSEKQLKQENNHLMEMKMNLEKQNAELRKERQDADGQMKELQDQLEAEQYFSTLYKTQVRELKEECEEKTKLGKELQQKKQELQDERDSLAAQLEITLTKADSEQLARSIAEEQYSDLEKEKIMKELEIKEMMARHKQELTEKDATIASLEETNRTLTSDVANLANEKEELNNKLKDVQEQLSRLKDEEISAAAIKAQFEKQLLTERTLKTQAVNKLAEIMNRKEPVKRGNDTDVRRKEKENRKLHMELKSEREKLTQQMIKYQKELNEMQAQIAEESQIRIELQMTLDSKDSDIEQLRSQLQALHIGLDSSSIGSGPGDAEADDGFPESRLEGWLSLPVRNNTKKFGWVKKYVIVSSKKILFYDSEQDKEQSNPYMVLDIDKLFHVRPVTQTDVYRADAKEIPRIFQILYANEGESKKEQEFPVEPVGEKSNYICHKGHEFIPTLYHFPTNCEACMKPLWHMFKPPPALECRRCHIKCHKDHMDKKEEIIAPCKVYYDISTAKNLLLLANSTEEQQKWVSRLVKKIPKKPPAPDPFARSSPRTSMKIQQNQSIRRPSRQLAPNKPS
- test: ROCK2 kinase inhibition assay (LABCHIP 3000 Reader, FITC peptide substrate);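 further: rho kinase reaction read by separating phosphorylated from unphosphorylated peptide on chip, with inhibition of kinase activity computed per concentration across a dose-response series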
pIC50: −log10 of the molar value. Structures can show the parent of a compound that is named as a salt.
Each entry below carries its recorded pIC50.

compound: [H][C@]1(Oc2ncccc2C(N)=O)C[C@@]2(C[C@H](NC(=O)c3nn(CC(C)(C)O)c4cc(-c5cnn(C)c5)ccc34)C2)C1 (stereo partly shown)
target_or_system: ROCK2 (Homo sapiens, UniProt O75116)
pIC50: > 8.30
--
compound: N#Cc1ccc(-c2ncc(C(=O)NC3CC4(C3)CC(Oc3ncccc3C(N)=O)C4)s2)cc1 (stereo not shown) [Example 418, TFA]
target_or_system: ROCK2 (Homo sapiens, UniProt O75116)
pIC50: 7.30 to 8.30
--
compound: NC(=O)c1cccnc1O[C@H]1CC2(C[C@H](NC(=O)c3cnn4cc(OCCCN5CCCC5=O)ccc34)C2)C1 (stereo partly shown)
target_or_system: ROCK2 (Homo sapiens, UniProt O75116)
pIC50: 7.30 to 8.30
--
compound: NC(=O)c1cccnc1O[C@H]1CC2(C[C@H](NC(=O)c3cnn4c(C5CC5)c(OC5CCS(=O)(=O)CC5)ccc34)C2)C1 (stereo partly shown)
target_or_system: ROCK2 (Homo sapiens, UniProt O75116)
pIC50: > 8.30
--
compound: Cc1noc(C)c1-c1cc(C#N)cc(C(=O)N[C@H]2CC3(C2)C[C@H](Oc2ncccc2C(N)=O)C3)c1 (stereo partly shown)
target_or_system: ROCK2 (Homo sapiens, UniProt O75116)
pIC50: 7.30 to 8.30
--
compound: CC(C)(O)COc1ccc2c(C(=O)NC3CC4(C3)CC(Oc3cc(-c5cccc(C#N)c5)ccc3C(N)=O)C4)cnn2c1 (stereo not shown)
target_or_system: ROCK2 (Homo sapiens, UniProt O75116)
pIC50: > 8.30
--
compound: Cc1nc(-c2cc(C#N)cc(C(=O)N[C@H]3CC4(C3)C[C@H](Oc3ncccc3C(N)=O)C4)c2)cs1 (stereo partly shown)
target_or_system: ROCK2 (Homo sapiens, UniProt O75116)
pIC50: 7.30 to 8.30
--
compound: [2H]C([2H])([2H])n1nc2cc(F)ccc2c1C(=O)N[C@H]1CC2(C1)C[C@H](Oc1ncccc1C(N)=O)C2 (stereo partly shown)
target_or_system: ROCK2 (Homo sapiens, UniProt O75116)
pIC50: 5.60 to 6.60
--
compound: Cn1c(C(=O)N[C@H]2CC3(C2)C[C@H](Oc2ncccc2C(N)=O)C3)cc2ccc(Cl)cc21 (stereo partly shown)
target_or_system: ROCK2 (Homo sapiens, UniProt O75116)
pIC50: 6.60 to 7.30
--
compound: [H][C@]1(Oc2ncccc2C(N)=O)C[C@@]2(C[C@H](NC(=O)c3cnn(-c4ccc(N5CCOCC5)cc4)c3C)C2)C1 (stereo partly shown) [Example 378, Trifluoroacetic Acid Salt]
target_or_system: ROCK2 (Homo sapiens, UniProt O75116)
pIC50: 6.60 to 7.30
--
compound: COc1ccc(CCc2ccccc2C(=O)N[C@H]2CC3(C2)C[C@H](Oc2ncccc2C(N)=O)C3)cc1 (stereo partly shown)
target_or_system: ROCK2 (Homo sapiens, UniProt O75116)
pIC50: 5.60 to 6.60
--
compound: NC(=O)c1cccnc1O[C@H]1CC2(C[C@H](NC(=O)c3cnn4c(C5CC5)c(OCC5(O)CC(F)(F)C5)ccc34)C2)C1 (stereo partly shown) [Example 415, TFA]
target_or_system: ROCK2 (Homo sapiens, UniProt O75116)
pIC50: > 8.30
--
compound: NC(=O)c1cccnc1O[C@H]1CC2(C[C@H](NC(=O)c3cnn4cc(OCCn5ccnc5)ccc34)C2)C1 (stereo partly shown)
target_or_system: ROCK2 (Homo sapiens, UniProt O75116)
pIC50: 7.30 to 8.30
